Where do these numbers come from? They come from paper PMC12490080.

Catalogue of proteins with associated kcat
# Substrate: CC(=O)C=O
# experiment.description: purified protein
# Type: biochemical, Arabidopsis thaliana
# conditions.used: true substrate is the hemithioacetal of MGO and GSH (preformed 30 min; HTA concentration calculated with Kdiss 3.0 mM), 1.7 mM GSH, 0.5 mM Ni2+, 100 mM MOPS pH 7.0, 25 °C
Give the value in s⁻¹ but do not write s⁻¹ after it.

Recorded results for 2 proteins are shown here.
protein	kcat / s⁻¹
GLXI;2 (Col-0 GLXI;2) (Arabidopsis thaliana; F278I/K229N) (protein, monomer; two domains, active site 2 (His89, Glu137, Gln150, Glu201)) MAEASDLLEWPKKDNRRFLHVVYRVGDLDRTIEFYTEVFGMKLLRKRDIPEEKYSNAFLGFGPETSNFVVELTYNYGVSSYDIGTGFGHFAISTQDVSKLVENVRAKGGNVTREPGPVKGGGSVIAFVKDPDGYTFELIQRGPTPEPFCQVMLRVGDLDRAIKFYEKALGMRLLRKIERPEYKYTIGMMGYAEEYESIVLELTYNYDVTEYTKGNAYAQIAIGTDDVYNSGEVIKIVNQELGGKITREAGPLPGLGTKIVSFLDPDGWKTVLVDNKDILKELE	8.1
GLXI;2 (Col-0 GLXI;2) (Arabidopsis thaliana) (protein, monomer; two domains, active site 2 (His89, Glu137, Gln150, Glu201)) MAEASDLLEWPKKDNRRFLHVVYRVGDLDRTIEFYTEVFGMKLLRKRDIPEEKYSNAFLGFGPETSNFVVELTYNYGVSSYDIGTGFGHFAISTQDVSKLVENVRAKGGNVTREPGPVKGGGSVIAFVKDPDGYTFELIQRGPTPEPFCQVMLRVGDLDRAIKFYEKALGMRLLRKIERPEYKYTIGMMGYAEEYESIVLELTYNYDVTEYTKGNAYAQIAIGTDDVYKSGEVIKIVNQELGGKITREAGPLPGLGTKIVSFLDPDGWKTVLVDNKDFLKELE	7.5

q: Report kcat for GLXI;2 (Col-0 GLXI;2) (Arabidopsis thaliana; K229N) (protein, monomer; two domains, active site 2 (His89, Glu137, Gln150, Glu201)) MAEASDLLEWPKKDNRRFLHVVYRVGDLDRTIEFYTEVFGMKLLRKRDIPEEKYSNAFLGFGPETSNFVVELTYNYGVSSYDIGTGFGHFAISTQDVSKLVENVRAKGGNVTREPGPVKGGGSVIAFVKDPDGYTFELIQRGPTPEPFCQVMLRVGDLDRAIKFYEKALGMRLLRKIERPEYKYTIGMMGYAEEYESIVLELTYNYDVTEYTKGNAYAQIAIGTDDVYNSGEVIKIVNQELGGKITREAGPLPGLGTKIVSFLDPDGWKTVLVDNKDFLKELE please.
a: 9.1

q: Another protein to check: GLXI;2 (Col-0 GLXI;2) (Arabidopsis thaliana; F278I) (protein, monomer; two domains, active site 2 (His89, Glu137, Gln150, Glu201)) MAEASDLLEWPKKDNRRFLHVVYRVGDLDRTIEFYTEVFGMKLLRKRDIPEEKYSNAFLGFGPETSNFVVELTYNYGVSSYDIGTGFGHFAISTQDVSKLVENVRAKGGNVTREPGPVKGGGSVIAFVKDPDGYTFELIQRGPTPEPFCQVMLRVGDLDRAIKFYEKALGMRLLRKIERPEYKYTIGMMGYAEEYESIVLELTYNYDVTEYTKGNAYAQIAIGTDDVYKSGEVIKIVNQELGGKITREAGPLPGLGTKIVSFLDPDGWKTVLVDNKDILKELE
a: 8.4
